molecular target: M1 muscarinic receptor (Homo sapiens); construct: expressed in transfected cells; host or cells: CHO (M1-CHO); assay: Functional mobilization of intracellular calcium (FLIPR), M1-CHO cells; type: cell-based; settings: 100% efficacy = maximum response obtained with the Carbachol control
Sequence (P11229 whole entry): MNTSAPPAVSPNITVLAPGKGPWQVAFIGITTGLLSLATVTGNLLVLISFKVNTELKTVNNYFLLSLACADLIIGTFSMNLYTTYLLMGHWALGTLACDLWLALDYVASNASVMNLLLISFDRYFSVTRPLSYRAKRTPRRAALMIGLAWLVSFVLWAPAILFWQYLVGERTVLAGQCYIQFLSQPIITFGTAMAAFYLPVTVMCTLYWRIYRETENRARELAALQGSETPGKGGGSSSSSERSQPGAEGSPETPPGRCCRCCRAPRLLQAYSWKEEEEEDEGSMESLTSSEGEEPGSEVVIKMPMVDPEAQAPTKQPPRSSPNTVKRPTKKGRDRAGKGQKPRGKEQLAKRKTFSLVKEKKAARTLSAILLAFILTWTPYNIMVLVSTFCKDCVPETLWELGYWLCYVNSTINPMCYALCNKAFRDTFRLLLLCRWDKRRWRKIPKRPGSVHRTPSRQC

COMPOUND	Emax
CCNC(=O)c1ccc(-c2ccc(OC)c(C3CCN([C@H]4C[C@H]5CC[C@H]4C5)CC3)c2)cc1	< 25%
COc1ccc(C(C)=O)cc1C1CCN([C@H]2C[C@H]3CC[C@H]2C3)CC1	< 25%
COc1ccccc1C1CCN(CC2CCCOC2)CC1 (stereo not drawn)	25 to 100%
Cc1ccc(C)c(C2(O)CCN(CC3CC4C=CC3C4)CC2)c1 (stereo not drawn)	25 to 100%
COc1ccc(NC(C)=O)cc1C1CCN(CC2C[C@H]3CC[C@H]2C3)CC1 (stereo partly drawn)	< 25%
Cc1ccc(-c2ccccc2C2CCN([C@H]3C[C@H]4CC[C@H]3C4)CC2)cc1	< 25%
COc1c(F)cc(F)cc1C1CCN([C@@H]2C[C@H]3CC[C@H]2C3)CC1	< 25%
COc1ccc(Cl)cc1C1(OC)CCN(C[C@@H]2C[C@H]3C=C[C@H]2C3)CC1	25 to 100%
COc1ccc(-c2cccc(C#N)c2)cc1C1CCN([C@H]2C[C@H]3CC[C@H]2C3)CC1	< 25%
COc1ccccc1C1CCN(C2CC3CCC2C3)CC1 (stereo not drawn)	25 to 100%
CCC(=O)c1ccc(OC)c(C2CCN([C@H]3C[C@H]4CC[C@H]3C4)CC2)c1	< 25%
COc1ccccc1C1(O)CCN([C@H]2C[C@H]3CC[C@H]2C3)CC1O (stereo partly drawn)	< 25%
CCOC(=O)N1C2CCC1CC(N1CCC(c3cc(F)cc(F)c3OC)CC1)C2 (stereo not drawn)	25 to 100%
COc1ccc(-c2ccc(C(=O)N3CCCCC3)cc2)cc1C1CCN([C@H]2C[C@H]3CC[C@H]2C3)CC1	< 25%
COc1ccc(-c2ccccc2C2CCN([C@H]3C[C@H]4CC[C@H]3C4)CC2)c(OC)c1	25 to 100%
